Below, each of the compounds is paired with its reported relative IC50 value.
Tested on: NK-92 (IL-2 2.5 ng/mL)
test: relative IC50 (inflection point of fitted viability curve, relative to fitted max inhibition); higher = less sensitive
protocol-conditions: 72 h
Number only, in nM; omit the unit.

Please review the entries below; each comes with its answer.
- smiles-text: "O=C(O)CCCc1ccc(N(CCCl)CCCl)cc1"
  relative IC50 (nM): 3200
- smiles-text: "N#CCNC(=O)c1ccc(-c2ccnc(Nc3ccc(N4CCOCC4)cc3)n2)cc1"
  relative IC50 (nM): 346
- smiles-text: "CC[C@]1(O)C[C@H]2CN(CCc3c([nH]c4ccccc34)[C@@](C(=O)OC)(c3cc4c(cc3OC)N(C=O)[C@H]3[C@@](O)(C(=O)OC)[C@H](OC(C)=O)[C@]5(CC)C=CCN6CC[C@]43[C@@H]65)C2)C1"
  relative IC50 (nM): 9.88

Here is the next item to consider.
[in] Query relative IC50 on NK-92 (IL-2 2.5 ng/mL) for C=CCn1c(=O)c2cnc(Nc3ccc(N4CCN(C)CC4)cc3)nc2n1-c1cccc(C(C)(C)O)n1
[out] 93.8

* * *

Tested on: normal primary NK cells, pool 1 (3 donors), resting (IL-2 0 ng/mL);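 further: normalised to DMSO-only wells as negative and benzethonium chloride as positive control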
test: percent inhibition of viability; higher = more inhibition
protocol-conditions: 72 h; 2.5 nM
Below, each of the compounds is paired with its reported percent inhibition of viability value.
Number only, in %; omit the unit.

Please review the entries below; each comes with its answer.
- compound: "CC(=O)OC[C@H]1O[C@@H]([S-])[C@H](OC(C)=O)[C@@H](OC(C)=O)[C@@H]1OC(C)=O.CCP(CC)CC.[Au+] [Auranofin] (max concentration tested 2500 nM)"
  recorded-result: -6.64
- compound: "COc1ccc(Cl)c(Nc2nc3ccccc3nc2NS(=O)(=O)c2cccc(NC(=O)C(C)(C)N)c2)c1 [Pilaralisib] (max concentration tested 2500 nM)"
  recorded-result: 14
- compound: "COC[C@H](NC(=O)c1cnc(C)s1)C(=O)N[C@@H](COC)C(=O)N[C@@H](Cc1ccccc1)C(=O)[C@@]1(C)CO1 [Oprozomib] (max concentration tested 2500 nM)"
  recorded-result: 0.23

Here is the next item to consider.
[in] Recorded percent inhibition of viability of C[C@@H]1CN(CC(=O)Nc2ccc3c(c2)Cc2cccc(-c4cc(=O)cc(N5CCOCC5)o4)c2S3)C[C@H](C)O1 (max concentration tested 25000 nM) , please.
[out] 10.2

* * *

Tested on: normal primary NK cells, pool 1 (3 donors), resting (IL-2 0 ng/mL);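 further: normalised to DMSO-only wells as negative and benzethonium chloride as positive control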
test: percent inhibition of viability; higher = more inhibition
protocol-conditions: 72 h; 1 nM
Below, each of the compounds is paired with its reported percent inhibition of viability value.
Number only, in %; omit the unit.

Please review the entries below; each comes with its answer.
- compound: "CC1(C)CCC(c2ccc(Cl)cc2)=C(CN2CCN(c3ccc(C(=O)NS(=O)(=O)c4ccc(N[C@H](CCN5CCOCC5)CSc5ccccc5)c(S(=O)(=O)C(F)(F)F)c4)cc3)CC2)C1 [Navitoclax] (max concentration tested 10000 nM)"
  recorded-result: 2.54
- compound: "CC[C@H](C)C(=O)O[C@H]1C[C@@H](C)C=C2C=C[C@H](C)[C@H](CC[C@@H]3C[C@@H](O)CC(=O)O3)[C@H]21 [Lovastatin] (max concentration tested 10000 nM)"
  recorded-result: -2.63
- compound: "NC(=S)N/N=C/c1ncccc1N [Triapine] (max concentration tested 10000 nM)"
  recorded-result: -6.48
- compound: "C=CCN(/C=C1/C(=O)O[C@H](COC)[C@@]2(C)C1=C(O)C(=O)C1=C2[C@H](OC(C)=O)C[C@]2(C)C(=O)CC[C@@H]12)CC=C [Sonolisib] (max concentration tested 10000 nM)"
  recorded-result: -7.82

Here is the next item to consider.
[in] Query percent inhibition of viability on normal primary NK cells, pool 1 (3 donors), resting (IL-2 0 ng/mL) for NC(=O)Nc1cc(-c2cccc(F)c2)sc1C(=O)N[C@H]1CCCNC1 [AZD7762] (max concentration tested 1000 nM)
[out] 27.9
